Measured values drawn from paper PMC11212559 for this set.

system: E1CTD-E12 complex (Monkeypox virus Zaire-96-I-16)
procedure_text: biochemical
readout_name: Kd (µM)
One number for each entry, in µM.

Exam item: Endpoint output: Kd of C[S+](CC[C@H](N)C(=O)O)C[C@H]1O[C@@H](n2cnc3c(N)ncnc32)[C@H](O)[C@@H]1O (stereo partly shown) . Value?
Marked response: 3.87
